Attribute: inhibition
study target: Tyrosine-protein kinase JAK2 (Homo sapiens)
procedure details: Inhibition of recombinant human GST-tagged JAK2 cytoplasmic domain (809 to […] residues) expressed in baculovirus expression system at 500 nM by Z-LYTE assay relative to control
measured quantity: inhibition (%)

1) OCc1ccc(-c2cc3c(N[C@H](CO)c4ccccc4)ncnc3[nH]2)cc1
6
2) OC[C@@H](Nc1ncnc2sc(-c3ccc(O)cc3)cc12)c1ccccc1
1
3) CN(C)CCn1cc(-c2cccc(O)c2)c2c(N)ncnc21
7
4) CCC(=O)Nc1ccc(-c2c[nH]c3ncnc(N[C@H](C)c4ccccc4)c23)cc1
13

* * *

study target: Inhibitor of nuclear factor kappa-B kinase subunit epsilon (Homo sapiens)
procedure details: Inhibition of recombinant full-length human GST-tagged IKKepsilon expressed in baculovirus expression system at 500 nM by Z-LYTE assay relative to control
measured quantity: inhibition (%)

1. OC[C@@H](Nc1ncnc2sc(-c3ccc(O)cc3)cc12)c1ccccc1
-1
2. CN(C)CCn1cc(-c2cccc(O)c2)c2c(N)ncnc21
3
3. CCC(=O)Nc1ccc(-c2c[nH]c3ncnc(N[C@H](C)c4ccccc4)c23)cc1
-2
4. OCc1ccc(-c2cc3c(N[C@H](CO)c4ccccc4)ncnc3[nH]2)cc1
3
